src = ChEMBL document CHEMBL1139786

System: Staphylococcus aureus
experimental.details: Antibacterial activity against Staphylococcus aureus MTCC 96 by broth dilution method
Format: functional
measure: MIC (µg/mL)
Write the value in µg/mL as a bare number.

In: Name the recorded MIC of the item CCN1C(NNC(=O)c2ccc([N+](=O)[O-])o2)=NS(=O)(=O)c2ccccc21 in your answer.
Out: 150

In: For the molecule CN1C(NNC(=O)c2ccc(-c3cccc([N+](=O)[O-])c3)o2)=NS(=O)(=O)c2ccccc21 , give its measured MIC value.
Out: 18.8

In: Return value of MIC for input CCN1C(NNC(=O)c2ccc(-c3ccccc3[N+](=O)[O-])o2)=NS(=O)(=O)c2ccccc21 , no commentary.
Out: 9.37

In: Consider the molecule O=C(NNC1=NS(=O)(=O)c2ccccc2N1c1ccccc1)c1ccc(-c2cccc([N+](=O)[O-])c2)o1 . State its measured MIC.
Out: 18.8

In: For the molecule CN1C(NNC(=O)c2ccc(-c3ccccc3[N+](=O)[O-])o2)=NS(=O)(=O)c2cc(Cl)ccc21 , give its measured MIC value.
Out: 75

In: State its MIC: O=[N+]([O-])c1ccc(/C=N\NC2=NS(=O)(=O)c3ccccc3N2c2ccccc2)o1
Out: 75

In: Indicate its recorded MIC; the molecule in question is CCN1C(NNC(=O)c2ccc(-c3cccc([N+](=O)[O-])c3)o2)=NS(=O)(=O)c2ccccc21
Out: 75

In: State, in one line, measured MIC of CN1C(NNC(=O)c2ccc([N+](=O)[O-])o2)=NS(=O)(=O)c2ccccc21
Out: 37.5

In: Please give the documented MIC of O=[N+]([O-])c1ccc(/C=N\NC2=NS(=O)(=O)c3ccccc3N2c2ccccc2)s1
Out: 37.5

In: Please look at this molecule and report its MIC: O=C1CN(/N=C/c2ccc([N+](=O)[O-])o2)C(=O)N1
Out: 18.8

====

Recorded MIC, one value per entry.
Test system: Staphylococcus aureus
experimental.details: Antibacterial activity against Staphylococcus aureus MTCC 96 by broth dilution method
Type: functional
Please reply with the bare figure in µg/mL and do not write the unit itself.

Examples from the recorded data:
CC(C)N1C(N/N=C\c2ccc([N+](=O)[O-])s2)=NS(=O)(=O)c2ccccc21 : 18.8
CN1C(NNC(=O)c2ccc(-c3ccccc3[N+](=O)[O-])o2)=NS(=O)(=O)c2ccccc21 : 18.8
CN1C(NNC(=O)c2ccc([N+](=O)[O-])o2)=NS(=O)(=O)c2cc(Cl)ccc21 : 37.5
CN1C(N/N=C\c2ccc([N+](=O)[O-])o2)=NS(=O)(=O)c2ccccc21 : 37.5
O=C(NNC1=NS(=O)(=O)c2ccccc2N1c1ccccc1)c1ccc([N+](=O)[O-])o1 : 37.5
O=C(NNC1=NS(=O)(=O)c2ccccc2N1c1ccccc1)c1ccc(-c2ccccc2[N+](=O)[O-])o1 : 18.8

In: Please list MIC recorded for the compound CN1C(N/N=C\c2ccc([N+](=O)[O-])s2)=NS(=O)(=O)c2ccccc21
Out: 37.5

In: Supply MIC value. Item: CCN1C(N/N=C\c2ccc([N+](=O)[O-])o2)=NS(=O)(=O)c2ccccc21
Out: 37.5

In: Look up and state reported MIC for CCN1C(N/N=C\c2ccc([N+](=O)[O-])s2)=NS(=O)(=O)c2ccccc21
Out: 18.8
